# EXPERIMENTAL TARGET: T1, RC-Fc (human)
# T1 construct: Knob-in-hole heterodimer of the R chain and the C chain, human IgG1 Fc; expressed in 293 cells, purified on Protein A; also called RC-Fc fusion protein; reconstructed CGRP receptor extracellular region
# T1 sequence (chain, as listed by the source limits assumed, chain 1 of 2): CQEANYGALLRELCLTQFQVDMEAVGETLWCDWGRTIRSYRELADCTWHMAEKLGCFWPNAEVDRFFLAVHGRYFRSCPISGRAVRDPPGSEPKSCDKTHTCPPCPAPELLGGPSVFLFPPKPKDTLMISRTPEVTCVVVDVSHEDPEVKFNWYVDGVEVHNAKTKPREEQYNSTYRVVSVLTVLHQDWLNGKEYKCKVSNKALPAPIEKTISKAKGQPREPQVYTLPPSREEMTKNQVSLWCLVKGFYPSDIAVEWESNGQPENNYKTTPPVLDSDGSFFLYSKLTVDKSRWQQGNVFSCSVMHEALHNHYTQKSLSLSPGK
# T1 sequence (chain, as listed by the source limits assumed, chain 2 of 2): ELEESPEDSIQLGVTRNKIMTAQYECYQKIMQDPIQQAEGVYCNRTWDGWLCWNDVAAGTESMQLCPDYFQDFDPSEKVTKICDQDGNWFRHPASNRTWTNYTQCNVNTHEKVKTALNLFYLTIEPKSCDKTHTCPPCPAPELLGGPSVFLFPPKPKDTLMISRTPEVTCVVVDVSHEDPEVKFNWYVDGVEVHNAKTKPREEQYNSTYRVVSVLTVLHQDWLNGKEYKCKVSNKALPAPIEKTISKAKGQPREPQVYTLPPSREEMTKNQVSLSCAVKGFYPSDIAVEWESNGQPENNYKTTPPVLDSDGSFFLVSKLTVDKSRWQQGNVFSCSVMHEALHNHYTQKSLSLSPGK
# TEST: ELISA, RC-Fc coated, VHH-His titrated, anti-His-HRP; average of Exp1-3
OBSERVED PROPERTY: pEC50
Units for pEC50: none; it is -log10 of a concentration expressed in mol/L.

BINDER	OBSERVED PROPERTY	ASSAY VALUE
A10-269-172 (VHH, Llama VHH with C-terminal 6xHis, expressed in 293 cells; also called N220505104) VHH: EVQVVESGGGLVQAGGSLRLSCVSSESSFSINTMRWYRQAPGKERELVASINSASSTYYGDAVKGRFTISRVNAKNTVYLQMNSLKPEDTAVYFCNTHSVLASRDYWGQGTQVTVSS	pEC50	10.30
A10-268-103 (VHH, Llama VHH with C-terminal 6xHis, expressed in 293 cells; also called B828605) VHH: QVQLVESGGGLVQAGGSLRLSCVASGRTFSSYAMGWFRQAPGKEREFVSGITESGATTRYADSMRGRFIISRDNAQNTVYLEMNSLKPEDSAVYYCAASRFGITVPTAKGAYNYWGQGTQVTVSS	pEC50	9.60
A10-268-76 (VHH, Llama VHH with C-terminal 6xHis, expressed in 293 cells; also called B828604) VHH: QVQLVESGGGLVPAGGSLNLSCAASGRTFSTYAMGWFRQAPGKEREFVATINWDNGRTYYADSVKGRFTISRDNAKNMVYLQMNSLKPEDTAVYYCAADKTAIFRTSVVPDDYDYWGQGTQVTVSS	pEC50	10.19

# evaluate next
Give a short answer stating reported pEC50 for A10-269-165 (VHH, Llama VHH with C-terminal 6xHis, expressed in 293 cells; also called N220505103) VHH: QVQLVESGGGLVQAGGSLRLSCAASRTWFSIGAMGWYRQAPGKQRELVATITSGSSTTYADAVKGRFTVSRDNAENTVYLQMNSLKPEDTAVYYCYTKSRRKPWDLENDYWGQGTQVTVSS .
9.68
